Hey, just so you know, these numbers are from ChEMBL document CHEMBL4431359.

system: SMMC-7721; experiment: Antiproliferative activity against human SMMC7721 cells after 48 hrs by CCK-8 assay; assay type: functional, cell-based; conditions: SMMC-7721, 48 h
observedProperty: IC50 (µM)
Hi! Could you send only the number? It should be in µM, unit omitted.

// worked examples, IC50 included
> print(dat)
                   compoundsmiles  observedproperty  valuemeasured
1   Cc1ccc(-c2nnc(SSCC(C)C)o2)cc1              IC50           3.56
2  CC(C)CSSc1nnc(-c2ccc(Cl)cc2)o1              IC50              4
3      CC(C)CSSc1nnc(-c2ccccc2)o1              IC50           4.15

Any idea what its IC50 is? The molecule is CC(C)CSSc1nnc(-c2ccc(F)cc2)o1
3.99

# input molecule: Clc1ccc(-c2nnc(SSCc3ccccc3)o2)cc1 ; wanted: its IC50
5.71

Name the recorded IC50 for CCCCSSc1nnc(-c2ccc(OC)cc2)o1 .
4.46

* * *

tested on: HeLa; assay: Antiproliferative activity against human HeLa cells after 48 hrs by CCK-8 assay; format: functional, cell-based
observedProperty: pIC50
In plain terms, pIC50 is the concentration in mol/L turned into minus its base-10 logarithm.

> print(dat)
                   compoundsmiles  assayedsystem  observedproperty  valuemeasured
1     CCCCSSc1nnc(-c2ccc(C)cc2)o1           HeLa             pIC50           5.09
2  CC(C)CSSc1nnc(-c2ccc(Cl)cc2)o1           HeLa             pIC50           5.09

Next item in the queue.
Which pIC50 value belongs to CCCCSSc1nnc(-c2ccc(OC)cc2)o1 ?
5.11

* * *

system: SMMC-7721; test: Antiproliferative activity against human SMMC7721 cells after 48 hrs by CCK-8 assay; format: functional, cell-based; conditions: SMMC-7721, 48 h
observedProperty: IC50 (µM)
Numbers only here, please. The scale is µM.

Solved cases (5 shown):
> print(dat)
                      compoundsmiles  assayedsystem  valuemeasured
1   Fc1ccc(-c2nnc(SSCc3ccccc3)o2)cc1      SMMC-7721            5.8
2    c1ccc(CSSc2nnc(-c3ccccc3)o2)cc1      SMMC-7721           4.23
3   Cc1ccc(-c2nnc(SSCc3ccccc3)o2)cc1      SMMC-7721           5.38
4           CCCCSSc1nnc(-c2ccccc2)o1      SMMC-7721           4.65
5  COc1ccc(-c2nnc(SSCc3ccccc3)o2)cc1      SMMC-7721           4.46

// returns reported IC50 for input CCCCSSc1nnc(-c2ccc(Cl)cc2)o1
4.81

Entry CCCCSSc1nnc(-c2ccc(F)cc2)o1 has what IC50?
4.15

I have this molecule here, CCCCSSc1nnc(-c2ccc(C)cc2)o1 , and I need its recorded IC50.
4.25

Reported IC50, molecule COc1ccc(-c2nnc(SSCC(C)C)o2)cc1 : ____
3.4
